# Study Target: Large subunit-rSCFV5 fusion protein
# Sequence (chain, as listed by the source): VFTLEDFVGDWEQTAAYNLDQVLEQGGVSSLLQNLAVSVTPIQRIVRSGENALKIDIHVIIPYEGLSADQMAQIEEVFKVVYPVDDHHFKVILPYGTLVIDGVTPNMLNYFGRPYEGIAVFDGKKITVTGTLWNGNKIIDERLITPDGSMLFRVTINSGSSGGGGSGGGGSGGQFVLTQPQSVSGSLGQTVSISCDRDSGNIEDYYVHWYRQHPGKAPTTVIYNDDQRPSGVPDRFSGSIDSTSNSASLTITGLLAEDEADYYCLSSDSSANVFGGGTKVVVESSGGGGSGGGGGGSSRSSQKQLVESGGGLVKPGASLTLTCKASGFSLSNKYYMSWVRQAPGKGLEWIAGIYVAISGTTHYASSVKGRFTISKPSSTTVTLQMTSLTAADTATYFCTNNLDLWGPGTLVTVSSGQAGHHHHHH
# Protocol Description: cell-based or functional assay
Categorized via RLU, PCT+: low = under 9000 RLU, mid = from 9000 RLU up to 30000 RLU, high = 30000 RLU and over

Use the examples below as a reference point.
Band assignment needed for VEGYRLFDRKW (peptide, part only; not given: rSCFV18 scFv part, part only) [rSCFV18-small subunit mutant fusion protein RB186] please.
mid

Given VEGWRLFDRVS (peptide, part only; not given: rSCFV18 scFv part, part only) [rSCFV18-small subunit mutant fusion protein RC-237] , name the class its RLU, PCT+ places it in.
mid

In plain terms, what class is VDGYRLFEKVS (peptide, part only; not given: rSCFV18 scFv part, part only) [rSCFV18-small subunit mutant fusion protein RC-263] ?
low

Which bin should I file VEGYRIFEKKW (peptide, part only; not given: rSCFV18 scFv part, part only) [rSCFV18-small subunit mutant fusion protein RC-286] under?
low

For the record VEGYRLFNRKW (peptide, part only; not given: rSCFV18 scFv part, part only) [rSCFV18-small subunit mutant fusion protein RB223] , report the class its RLU, PCT+ corresponds to.
high

Band for the recorded RLU, PCT+ of VEGYRLFNKEW (peptide, part only; not given: rSCFV18 scFv part, part only) [rSCFV18-small subunit mutant fusion protein RB284] ?
low

Others:
Exercise: read the entry VEGYRLFDRVW (peptide, part only; not given: rSCFV18 scFv part, part only) [rSCFV18-small subunit mutant fusion protein RB128] and state which class it falls under.
mid

Sort into band: VEGYRLFEKVS (peptide, part only; not given: rSCFV18 scFv part, part only) [rSCFV18-small subunit mutant fusion protein RC-042]
low

Assign a bin to VSGYRIFDKKS (peptide, part only; not given: rSCFV18 scFv part, part only) [rSCFV18-small subunit mutant fusion protein RC-044]
mid

Which class holds VEGWRLFDRKS (peptide, part only; not given: rSCFV18 scFv part, part only) [rSCFV18-small subunit mutant fusion protein RC-232] ?
mid

Could you tell me which band VEGYRLFKREL (peptide, part only; not given: rSCFV18 scFv part, part only) [rSCFV18-small subunit mutant fusion protein RB152] belongs to?
high

Exam item: assign VSGYRLFDRKW (peptide, part only; not given: rSCFV18 scFv part, part only) [rSCFV18-small subunit mutant fusion protein RC-033] to the correct category.
low

Lab note: which band did VEGYRLFERVL (peptide, part only; not given: rSCFV18 scFv part, part only) [rSCFV18-small subunit mutant fusion protein RB150] land in?
high

Sort into band: VSGYRIFEKKS (peptide, part only; not given: rSCFV18 scFv part, part only) [rSCFV18-small subunit mutant fusion protein RC-129]
mid

Band for VEGYRLFERKS (peptide, part only; not given: rSCFV18 scFv part, part only) [rSCFV18-small subunit mutant fusion protein RC-145] ?
low

Assign a bin to VSGYRLFDRKS (peptide, part only; not given: rSCFV18 scFv part, part only) [rSCFV18-small subunit mutant fusion protein RC-228]
mid
